target_or_system: PD-1/PD-L1 (Homo sapiens, UniProt Q9NZQ7)
Construct: made in house; host or cells: HEK293T
Sequence (Q9NZQ7 with tags, fused parts or gaps): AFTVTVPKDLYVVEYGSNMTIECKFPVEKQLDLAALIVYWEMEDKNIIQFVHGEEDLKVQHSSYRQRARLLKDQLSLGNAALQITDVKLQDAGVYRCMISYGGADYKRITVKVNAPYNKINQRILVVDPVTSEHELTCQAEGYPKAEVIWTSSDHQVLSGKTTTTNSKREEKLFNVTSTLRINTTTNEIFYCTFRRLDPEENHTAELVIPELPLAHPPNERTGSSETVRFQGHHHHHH
method_summary: PD-1/PD-L1 Homogenous Time-Resolved Fluorescence (HTRF) binding assay
experimental_context: PD-L1-His 10 nM, PD-1-Ig 20 nM; value given as range class; read-out: Range or IC50
pIC50: −log10 of the molar value.
Entries and their pIC50

molecule	pIC50
CCOC(=O)C1(CO)CCN(CCCOc2cccc(-c3cccc(COc4cc(OCc5cncc(C#N)c5)c(CN[C@](C)(CO)C(=O)O)cc4Cl)c3C)c2Cl)C1 (some centres unmarked)	8.00 to 9.68
Cc1c(COc2cc(OCc3cncc(C#N)c3)c(CN[C@@](C)(CO)C(=O)O)cc2Cl)cccc1-c1cccc(OCCCN2CCC(CO)CC2)c1C	8.00 to 9.68
Cc1c(COc2cc(OCc3cncc(C#N)c3)c(CNC[C@H](O)CO)cc2Cl)cccc1-c1cccc(OCCCNC[C@H](O)CO)c1Cl	8.00 to 9.68
Cc1c(COc2cc(OCc3cncc(C#N)c3)c(CN3CC(=O)NC(=O)C3)cc2Cl)cccc1-c1cccc(OCCCN2CC[C@@H](O)C2)c1C	8.00 to 9.68
Cc1c(COc2cc(OCc3cncc(C#N)c3)c(CNC(CO)(CO)CO)cc2Cl)cccc1-c1cccc(C(=O)N2CCOCC2)c1C	7.00 to 8.00
Cc1c(COc2cc(OCc3cncc(C#N)c3)c(CNC(CO)CO)cc2Cl)cccc1-c1cccc(OCCCN2CCC(O)(C(=O)O)CC2)c1Cl	8.00 to 9.68
Cc1c(COc2cc(OCc3cncc(C#N)c3)c(CN3CCCC[C@H]3C(=O)O)cc2Cl)cccc1-c1cccc(OCCCN2CCOCC2CO)c1C (some centres unmarked)	8.00 to 9.68
COC(=O)C1(C)CCCCN1Cc1cc(Cl)c(OCc2cccc(-c3cccc(OCCCN4CC[C@@H](O)C4)c3Cl)c2C)cc1OCc1cncc(C#N)c1 (some centres unmarked)	8.00 to 9.68
Cc1c(COc2cc(OCc3cncc(C#N)c3)c(CNC(CO)CO)cc2Cl)cccc1-c1cccc(C(=O)N(C)C)c1C	7.00 to 8.00
CCN(Cc1cc(Cl)c(OCc2cccc(-c3cccc(OCCCN4CC[C@@H](O)C4)c3C)c2C)cc1OCc1cncc(C#N)c1)[C@@](C)(CO)C(=O)O	8.00 to 9.68
Cc1c(COc2cc(OCc3cncc(C#N)c3)c(CN[C@](C)(CO)C(=O)O)cc2Cl)cccc1-c1cccc(OCCCN2CCC(O)C2)c1C#N (stereo in doubt)	8.00 to 9.68
